# T/C listing for each entry below
# Test system: BDF1 mice, P388 leukemia ip, median survival T/C
# PROTOCOL SUMMARY: NCI In Vivo Anticancer Drug Screen. Data for tumor model P388 Leukemia (intraperitoneal) in B6D2F1 (BDF1) mice
# RECORDED CONDITIONS: endpoint: median survival time; dose: 100.0 mg/kg/injection; schedule: Q04DX002 (ip); vehicle: saline with Tween-80; higher = longer survival
Toxic doses and inconclusive results are not listed.

Previously resolved entries follow.
Cc1cc(N(C)C)c(C=O)c(C)c1C=O: 113 % of control
CC(=O)CC(C)=O.CC(=O)CC(C)=O.Cc1nccn1C.O=N[O-].[Co]: 105 % of control
CSc1ncc(C)c[n+]1-c1ccccc1: 107 % of control
O=S1(=O)CC(N2CCCCC2)C2=C(CCN(c3ccccc3)C2)O1 (configuration not stated): 112 % of control

Asked: # get_value(readout= T/C, system= BDF1 mice, P388 leukemia ip, median survival T/C) for O=S(=O)(O)C1CCCCC1O (configuration not stated)
Given back: 98 % of control

Asked: Give the reported T/C for c1ccc(C2CC3CCCCN3O2)cc1 (configuration not stated) (system: BDF1 mice, P388 leukemia ip, median survival T/C).
Given back: 94 % of control

Asked: Give BDF1 mice, P388 leukemia ip, median survival T/C T/C for CC(C(=O)O)S(=O)(=O)c1ccccc1 (configuration not stated)
Given back: 93 % of control

###

# Test system: BDF1 mice, P388 leukemia ip, median survival T/C
# PROTOCOL SUMMARY: NCI In Vivo Anticancer Drug Screen. Data for tumor model P388 Leukemia (intraperitoneal) in B6D2F1 (BDF1) mice
# RECORDED CONDITIONS: endpoint: median survival time; dose: 6.25 mg/kg/injection; schedule: Q01DX009 (ip); vehicle: Klucel (hydroxypropylcellulose) (HPC)
# Procedure: The antitumor activity of compounds was measured in mice bearing transplantable tumors. Survival or tumor size were measured and the results are expressed as the measurement made in the treated group (T) divided by the measurement made in the vehicle treated control group (C). The tumor model used in this assay is P388 Leukemia (intraperitoneal) in B6D2F1 (BDF1) mice
Inconclusive results and toxic doses are left out. How the source made its calls: active means survival T/C of 150% or more; inactive means T/C below 125% in these data.
// classify into yes = active, no = inactive

The following molecules have reported results that may help.
CSc1nnc([N+](=O)[O-])s1: no
CCOC(=O)C1C2OC(=O)C(C(=O)C2CN(CCCl)CCCl)C1C1CC=C(CC2=CCC(C3C4C(=O)OC(C(CN(CCCl)CCCl)C4=O)C3C(=O)OCC)CC2)CC1 (stereo not drawn): yes
CCN1CCCC(Nc2cc(C)nc(Nc3nc4cc(Cl)c(Cl)cc4[nH]3)n2)C1 (stereo not drawn): no
O=C1C(Cl)=C(N=Nc2c(Cl)c(O)c3ccccc3c2O)C(=O)c2ccccc21: no
C/C=C/C[n+]1cccc2ccccc21: no

Asked: Which outcome was entered for the molecule O=Cc1ccc(/C=C2\NC(=O)NC2=O)cc1 in this test?
Given back: no

Asked: Dear colleague, could you share the recorded outcome for CN1CCC(CN2c3ccccc3Sc3ccccc32)CC1 when you have a moment?
Given back: no

Asked: Hi team, can someone confirm the assay call for CC(=O)[O][Hg][c]1c(C)c(C)c(C)c(C)c1C ?
Given back: no

Asked: In this assay, the call recorded for COC1C(O)C(C)OC(OC2C(Oc3cccc4c(O)c5c(=O)oc6ccc(C)c7c(=O)oc(c34)c5c67)OC(C)C(O)C2O)C1O (stereo not drawn) was what?
Given back: yes

Asked: Please state the recorded outcome for this molecule: CC1=CCCC(C)(C)C1/C=C/C(C)=C/C(=O)O (stereo not drawn)
Given back: no

###

# Test system: BDF1 mice, P388 leukemia ip, median survival T/C
# PROTOCOL SUMMARY: NCI In Vivo Anticancer Drug Screen. Data for tumor model P388 Leukemia (intraperitoneal) in B6D2F1 (BDF1) mice
# RECORDED CONDITIONS: endpoint: median survival time; dose: 50.0 mg/kg/injection; schedule: Q04DX003 (ip); vehicle: saline with Tween-80
Inconclusive results and toxic doses are left out. The calls were made as follows: active = survival T/C of 150% or more; inactive = T/C below 125% in these data.
A correct response names exactly one class from active, inactive

Consider the worked cases shown below.
Cc1ccc2c(c1)nc1c3ccccc3nnn21: inactive
CCNC(C)(C)C(Cl)c1ccc(Cl)s1 (stereo not drawn): inactive
CC(CO)(CI)[n+]1ccccc1 (stereo not drawn): inactive
O=N[O-].[Co].[N-]=C=S.[NH2-].[NH2-].[NH2-].[NH2-]: inactive
CCOC(=O)C(C(=O)OCC)=C(C)OCC: inactive
C1CCCCCC(NC2=NCCO2)CCCCC1: inactive
CCCCCCCCC(=O)N(C)OC: inactive
CN(C)N=C(Cc1ccccc1)Cc1ccccc1: inactive
c1ccc2c(SSc3cccc4ccccc34)cccc2c1: inactive
O=C1C=CCCCC1: inactive

Asked: Outcome? CCN(CC)CC(Cl)CN(CC)CC
Given back: inactive

Asked: Can you look up the reported call for Clc1nc(SC2=NCCN2)c2[nH]cnc2n1 for me?
Given back: active

Asked: Hi, do you know how C[C@@H]1C[C@@H]([C@@H](CC2CC(=O)NC(=O)C2)OC(=O)CC(=O)c2ccccc2)C(=O)[C@@H](C)C1 came out in this test?
Given back: inactive

Asked: Hey, what did the test say about Cc1ccc(S(=O)(=O)Cl)c(Cl)c1 ?
Given back: inactive

Asked: For this compound, state the assay outcome: Nc1nccnc1N
Given back: inactive

Asked: Write down the call the test reported for this compound. Item: O=C(Nc1ccc2c(c1)OCO2)O/N=C\c1cccnc1
Given back: inactive

###

# Tested on: BDF1 mice, P388 leukemia ip, median survival T/C
# PROTOCOL SUMMARY: NCI In Vivo Anticancer Drug Screen. Data for tumor model P388 Leukemia (intraperitoneal) in B6D2F1 (BDF1) mice
# RECORDED CONDITIONS: endpoint: median survival time; dose: 200.0 mg/kg/injection; schedule: Q01DX009 (ip); vehicle: Klucel (hydroxypropylcellulose) (HPC)
Toxic doses and inconclusive results are not listed. Rule for the calls: active = survival T/C of 150% or more; inactive = T/C below 125% in these data.
Give one outcome, nothing more. List: active, inactive

See these solved cases before continuing.
CC1SC(c2ccccc2)N(c2ccccc2)C1=O (centres undefined): inactive
C=C1C(c2ccccc2)C(c2ccccc2)=C(C)C(c2ccccc2)=CN1C(=O)c1ccccc1 (centres undefined): inactive
CC(C)(C)OC(=O)NNC(=O)c1ccc([N+](=O)[O-])cc1: inactive
O=C1C(OC(=O)c2ccccc2)=C(c2ccc(O)cc2)C(=O)C(OC(=O)c2ccccc2)=C1c1ccc(O)cc1: inactive
O=C1N(Br)C(=O)C(c2ccc(Cl)cc2)(c2ccc(Cl)cc2)N1Br: active

Asked: Assay result, entry C=C1C(=O)OC2C=C(C)C3C(O)CC(C)(O)C3CC12 (centres undefined) — outcome?
Given back: inactive

Asked: // return assay outcome for COc1ccc(NC(=O)c2ccccc2Cl)cc1
Given back: inactive

Asked: Assay result, entry COC(CC(C)CCCC(C)(C)O)OC (centres undefined) — outcome?
Given back: inactive

Asked: Can you look up the reported call for Cc1ccc(-n2c(=S)[nH]c3ccccc3c2=O)cc1C for me?
Given back: inactive

Asked: Short answer needed: outcome of this test for O=S(=O)(c1cccc(C(F)(F)F)c1)N1c2ccccc2-n2cccc2C1c1cccnc1 (centres undefined) ?
Given back: inactive

Asked: Can you look up the reported call for COC(=O)C1(Br)CCC1(Br)C(=O)OC (centres undefined) for me?
Given back: inactive

Asked: # outcome recorded in this test, key = CCCCCCCCCCCCc1c(C(OC)OC)[nH]c(=S)[nH]c1=O
Given back: inactive

Asked: So what was the verdict on O=[N+]([O-])c1cc(Br)c(N2CCCC2)cc1N1CCCC1 in this test?
Given back: inactive

Asked: Any idea what this test logged for CC1(C)OC(=O)C(=Cc2c(Cl)cccc2Cl)C(=O)O1 ?
Given back: inactive

###

Measured T/C, listed per entry for reference.
# Test system: BDF1 mice, P388 leukemia ip, median survival T/C
# PROTOCOL SUMMARY: NCI In Vivo Anticancer Drug Screen. Data for tumor model P388 Leukemia (intraperitoneal) in B6D2F1 (BDF1) mice
# RECORDED CONDITIONS: endpoint: median survival time; dose: 50.0 mg/kg/injection; schedule: Q04DX003 (ip); vehicle: Klucel (hydroxypropylcellulose) (HPC); higher = longer survival
Toxic doses and inconclusive results are not listed.

Example entries begin here.
O=C(c1ccccc1)c1cccc(Cl)c1: 104 % of control
Nc1nc(=S)c2[nH]c(N=Nc3ccc(S(=O)(=O)Nc4ncccn4)cc3)nc2[nH]1: 108 % of control
O=P(Cc1ccccc1)(C(O)c1ccccc1)C(O)c1ccccc1 (stereo unspecified): 100 % of control
CP(c1ccccc1)c1ccccc1: 113 % of control
N#CCC(N)=C(C#N)C#N: 104 % of control
CC(=O)n1ccnc1/C=C\c1ccc([N+](=O)[O-])s1: 95 % of control

Asked: So what T/C did c1ccc(C2OC2c2ccccc2)cc1 (stereo unspecified) get with BDF1 mice, P388 leukemia ip, median survival T/C?
Given back: 89 % of control

Asked: I'm curious: which T/C was measured for O=[N+]([O-])c1ccc2nccc(Cl)c2c1 tested on BDF1 mice, P388 leukemia ip, median survival T/C?
Given back: 95 % of control

Asked: Provide value of T/C for this record tested with BDF1 mice, P388 leukemia ip, median survival T/C: CNc1ccc(/C=C2\C=Cc3ccccc32)cc1
Given back: 100 % of control

Asked: What measured T/C is associated with Cc1sc([N+](=O)[O-])cc1[N+](=O)[O-] on BDF1 mice, P388 leukemia ip, median survival T/C?
Given back: 95 % of control

Asked: BDF1 mice, P388 leukemia ip, median survival T/C / T/C / COC(=O)C(CCC(=O)O)NC(=O)OCc1ccccc1 (stereo unspecified) : value?
Given back: 113 % of control
